Biological target: LMP7 (purified human immuno proteasome) (Homo sapiens, UniProt P28062)
Assay: Determination of LMP7 activity (fluorescence intensity assay, Suc-LLVY-AMC)
Assay type: biochemical
Conditions: purified human immuno proteasome 0.5 nM, 40 μM Suc-LLVY-AMC, 37° C.
Listing of entries alongside the reported IC50.

Please review the following examples before continuing.
CCc1cccc(C[C@H](NC(=O)[C@H](CC(=O)c2ccccc2)c2cccc(Cl)c2)B(O)O)c1 (single isomer, unassigned) = 0.05 to 0.5 µM
CCc1cccc(C[C@H](NC(=O)CCn2cnc3ccccc32)B(O)O)c1 = < 0.05 µM
CCc1cccc(C[C@H](NC(=O)CCn2cc(-c3ccc(OC)cc3)nn2)B(O)O)c1 = < 0.05 µM
COc1ccc(C(=O)C[C@@H](Cc2ccccc2)C(=O)N[C@@H](Cc2ccsc2)B(O)O)cc1 (single isomer, unassigned) = 0.05 to 0.5 µM
CCc1cccc(C[C@H](NC(=O)[C@@H](CC(=O)c2ccccc2)c2ccc(Cl)cc2)B(O)O)c1 (single isomer, unassigned) = 0.5 to 5 µM
CCc1cccc(C[C@H](NC(=O)CCn2cc(-c3cccc(OC)c3)nn2)B(O)O)c1 = < 0.05 µM

Item under review: "CCc1cccc(C[C@H](NC(=O)CCn2c(=O)sc3ccccc32)B(O)O)c1" . Reported IC50?
< 0.05 µM

====

Target: Beta5 (purified human constitutive proteasome) (Homo sapiens)
pIC50: −log10 of the molar value. Where a name gives a salt, the structure may show the parent alone.
Listing of entries alongside the reported pIC50.

Please review the following examples before continuing.
O=C(CCc1noc(-c2ccccc2)n1)N[C@@H](Cc1cccc(OC(F)(F)F)c1)B(O)O = 5.30 to 6.30
O=C(CCC(=O)c1ccc(-c2ccccc2)cc1)N[C@@H](Cc1ccsc1)B(O)O = 5.30 to 6.30

Item under review: O=C(CCc1ccncc1)N[C@@H](Cc1coc2ccccc12)B(O)O [Example 93, hydrochloride] . Reported pIC50?
> 7.30

Same lookup for "CCc1cccc(C[C@H](NC(=O)CCn2c(=O)sc3ccccc32)B(O)O)c1" , please.
6.30 to 7.30

Same lookup for "COc1ccc(C[C@H](NC(=O)CCn2cnc3ccccc32)B(O)O)cc1C(F)(F)F" , please.
6.30 to 7.30
